Attribution: patent US20200055939A1

Target: T1, MICA*008 on MEL-JUSO cells (human, UniProt Q29983 24-317); also: test concentration or dose not given here
T1 chain: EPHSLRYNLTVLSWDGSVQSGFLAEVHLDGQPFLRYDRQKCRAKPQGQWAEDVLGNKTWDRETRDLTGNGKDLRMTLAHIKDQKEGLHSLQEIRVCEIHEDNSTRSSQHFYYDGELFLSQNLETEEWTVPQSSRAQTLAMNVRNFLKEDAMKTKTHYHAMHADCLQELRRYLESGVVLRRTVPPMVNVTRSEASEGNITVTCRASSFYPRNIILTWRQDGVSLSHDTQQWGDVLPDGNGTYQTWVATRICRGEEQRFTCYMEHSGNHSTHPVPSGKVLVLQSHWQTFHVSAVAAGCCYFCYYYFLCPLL
Test: cell-based or functional assay
Entries annotated with measured % Inhibition

| binder | % Inhibition [%] |
| --- | --- |
| 13A9v2 (antibody, IgG1, V domains shown, humanized variant of 13A9) VH: EVQLVQSGAEVKKPGASVKVSCKASGYAFTNYLIEWVRQAPGQGLEWIGAINPGSGATNYNEKFKDRATLTADKSTNTAYLELSSLRSEDTAVYFCARFLGNYFDNWGQGTLVTVSS VL: DIQMTQSPSSLSASVGDRVTITCRASGNIHSYLAWYQQKPGKAPKLLIYYAETLADGVPSRFSGSGSGTDFTLTISSLQPEDFATYYCQQFWTTPYTFGQGTKVEIK | 12 |
| 1D5v13 (antibody, IgG1, V domains shown, humanized variant of 1D5) VH: EIQLVQSGAEVKKPGASVKVSCKASGYAFTSQNIYWVRQAPGQGLEWIGYIEPYNVVPMYNPKFKGRATLTVDKSTSTAYMELRSLRSDDTAVYYCARSGSSNFDYWGQGTLVTVSS VL: DIQMTQSPSSLSASVGDRVTITCSASSSISSHYLHWYQQKPGKAPKLLIYRTSNLASGVPSRFSGSGSGTDFTLTISSLQPEDFATYYCQQGSSLPLTFGQGTKVEIK | 51 |
| 15F11v4 (antibody, IgG1, V domains shown, humanized variant of 15F11) VH: EIQLVQSGAEVKKPGASVKVSCKPSGYAFTSNNIYWVRQAPGQGLEWIGYIDPYIGRIIYNQQFKDRATLTVDKSTSTAYLELSSLRSEDTAVYYCSRSGERSNFDYWGQGTLVTVSS VL: EIVLTQSPATLSLSPGERATLSCSASSSISSNYLHWYQQKPGQSPRLLIYRTSNLASGVPARFSGSGSGTDYTLTISSLEPEDFAVYYCQQGGSLPLTFGQGTKVEIK | -19 |
